The origin of these recorded values is patent US10251838B2.

assay_name: Phase transition temperatures (TM) of phospholipids
Format: physicochemical
cond: phosphatidylcholine/phosphatidyldiglycerol/phosphatidyltriglycerol/phosphatidyltetraglycerol with the given fatty acid pattern
Procedure: By selecting a phosphatidylcholine having a suitable main transition temperature, the stimuli-sensitive nanocarrier system, in particular the thermosensitive liposome, can be customised. Table 1 gives main transition temperatures (TM) of phosphatidylcholines whose main transition temperatures are in the range of from 0 to 80° C. The fatty acid chains and their distribution over positions 1 and 2 of the glycerol molecule dominate the physical properties of the phospholipids. […]
TM (phase transition temperature) below 40 °C gives NOT MET; TM (phase transition temperature) at or above it gives MET.

These recorded examples may help you get a feel for the data.
CCCCCCCC/C=C\CCCCCCCC(=O)OC(COC(=O)CCCCCCCCCCCCCCC)COP(=O)([O-])OCC[N+](C)(C)C (stereo not drawn): NOT MET
CCCCCCCCCCCCCCCCCC(=O)OCC(COC(=O)CCCCCCCCCCCCCCCCC)OP(=O)([O-])OCC[N+](C)(C)C: MET

query: API: above_or_equal(metric=TM (phase transition temperature), cutoff=40 °C) for item CCCCCCCCCCCCCCCC(=O)OCC(COP(=O)([O-])OCC[N+](C)(C)C)OC(=O)CCCCCCCCCCC (stereo not drawn)
result: NOT MET

query: API: above_or_equal(metric=TM (phase transition temperature), cutoff=40 °C) for item CCCCCCCCCCCCCCCCCC(=O)OC(COC(=O)CCCCCCCCCCCCCCC)COP(=O)([O-])OCC[N+](C)(C)C (stereo not drawn)
result: MET

query: API: above_or_equal(metric=TM (phase transition temperature), cutoff=40 °C) for item CCCCCCCCCCCCCCCCCC(=O)OCC(COC(=O)CCCCCCCCCCCCC)OP(=O)([O-])OCC[N+](C)(C)C (stereo not drawn)
result: MET

====

assay_name: Phase transition temperatures (TM) of phospholipids
Format: physicochemical
cond: phosphatidylcholine/phosphatidyldiglycerol/phosphatidyltriglycerol/phosphatidyltetraglycerol with the given fatty acid pattern
Property: TM (phase transition temperature); scope: individual compounds
Answer in °C, number only, no unit symbol.

Would you please look over these solved cases?
CCCCCCCCCCCCCC(=O)OCC(COC(=O)CCCCCCCCCCCCC)OP(=O)([O-])OCC[N+](C)(C)C: 19
CCCCCCCCCCCCCCCCCC(=O)OCC(COP(=O)([O-])OCC[N+](C)(C)C)OC(=O)CCCCCCCCCCCCCCC (centres unmarked): 48
CCCCCCCCCCCCCCCCCC(=O)OCC(COP(=O)([O-])OCC[N+](C)(C)C)OC(=O)CCCCCCCCCCC (centres unmarked): 17
CCCCCCCCCCCCCCCCCCCCCC(=O)OCC(COP(=O)([O-])OCC[N+](C)(C)C)OC(=O)CCCCCCCCCCCCCCCCCCCCC (centres unmarked): 75
CCCCCCCCCCCCCCCCCCCC(=O)OC[C@H](COP(=O)([O-])OCC[N+](C)(C)C)OC(=O)CCCCCCCCCCCCCCCCCCC: 66
CCCCCCCCCCCCCCCCCC(=O)OC(COC(=O)CCCCCCCCCCCCC)COP(=O)([O-])OCC[N+](C)(C)C (centres unmarked): 42
CCCCCCCC/C=C\CCCCCCCC(=O)OC(COC(=O)CCCCCCCCCCCCCCCCCCCCC)COP(=O)([O-])OCC[N+](C)(C)C (centres unmarked): 14
CCCCCCCC/C=C\CCCCCCCC(=O)O[C@H](COC(=O)CCCCCCCCCCCCCCCCC)COP(=O)([O-])OCC[N+](C)(C)C: 7

query: Fill in TM (phase transition temperature) for record CCCCCCCCCCCCCCCCCC(=O)OCC(COP(=O)([O-])OCC[N+](C)(C)C)OC(=O)CCCCCCCCCCCCCCCCC (centres unmarked)
result: 56

query: Fill in TM (phase transition temperature) for record CCCCCCCCCCCCCCCCCCCCCCCC(=O)OCC(COP(=O)([O-])OCC[N+](C)(C)C)OC(=O)CCCCCCCCCCCCCCCCCCCCCCC (centres unmarked)
result: 80

query: Fill in TM (phase transition temperature) for record "CCCCCCCCCCCCCCCC(=O)OCC(COC(=O)CCCCCCCCCCCCCCC)OP(=O)([O-])OCC[N+](C)(C)C"
result: 39
